These data points were gathered from ChEMBL document CHEMBL6127052.

System: Staphylococcus aureus
assay.name: Antibacterial activity against methicillin-resistant Staphylococcus aureus clinical isolate M16 by CLSI based micro-broth dilution method
Assay type: functional
measurement.name: MIC

Problem: Look up MIC: C=CCc1cc(-c2ccc(OCCC[N+](C)(C)CC(=O)NCCCC)c(CC=C)c2)c2oc(=S)n(Cc3cc(Cl)cc(Cl)c3)c2c1.[Br-]
Result: 32 µg/mL

Problem: Next: C=CCc1cc(-c2ccc(OCCC[N+](C)(C)CC(=O)NCCCC)c(CC=C)c2)c2oc(=S)n(Cc3ccccc3Cl)c2c1.[Br-]
Result: 4 µg/mL

Problem: Next: C=CCc1cc(-c2ccc(OCCC[N+](C)(C)CC(=O)NCCCC)c(CC=C)c2)c2oc(=S)n(Cc3ccc(F)c(Cl)c3)c2c1.[Br-]
Result: 16 µg/mL

---
Problem: Look up MIC: C=CCc1cc(-c2ccc(OCCC[N+](C)(C)CC(=O)NCCCC)c(CC=C)c2)c2oc(=S)n(Cc3ccc(Cl)cc3F)c2c1.[Br-]
Result: > 128 µg/mL

Problem: Next: C=CCc1cc(-c2ccc(OCCC[N+](C)(C)CC(=O)NCCCC)c(CC=C)c2)c2oc(=S)n(Cc3ccccc3)c2c1.[Br-]
Result: 4 µg/mL

Problem: Next: C=CCc1ccc(O)c(-c2ccc(O)c(CC=C)c2)c1
Result: 16 µg/mL

Problem: Next: C=CCc1cc(-c2ccc(OCCC[N+](C)(C)CC(=O)NCCCC)c(CC=C)c2)c2oc(=S)n(Cc3ccc(Cl)c(Cl)c3)c2c1.[Br-]
Result: 32 µg/mL

Problem: Next: C=CCc1cc(-c2ccc(OCCC[N+](C)(C)CC(=O)NCCCC)c(CC=C)c2)c2oc(=S)n(Cc3cc(Br)ccc3F)c2c1.[Br-]
Result: 8 µg/mL

Problem: Next: C=CCc1cc(-c2ccc(OCCC[N+](C)(C)CC(=O)NCCCC)c(CC=C)c2)c2oc(=S)n(Cc3ccc(C(F)(F)F)cc3)c2c1.[Br-]
Result: 8 µg/mL

Problem: Next: C=CCc1cc(-c2ccc(OCCC[N+](C)(C)CC(=O)NCCCC)c(CC=C)c2)c2oc(=S)n(Cc3ccc(F)cc3)c2c1.[Br-]
Result: 2 µg/mL

Problem: Next: C=CCc1cc(-c2ccc(OCCC[N+](C)(C)CC(=O)NCCCC)c(CC=C)c2)c2oc(=S)n(Cc3ccc(Br)cc3Br)c2c1.[Br-]
Result: > 128 µg/mL

Problem: Next: C=CCc1cc(-c2ccc(OCCC[N+](C)(C)CC(=O)NCCCC)c(CC=C)c2)c2oc(=S)n(Cc3cccc(Br)c3)c2c1.[Br-]
Result: 8 µg/mL

Problem: Next: C=CCc1cc(-c2ccc(OCCC[N+](C)(C)CC(=O)NCCCC)c(CC=C)c2)c2oc(=S)n(Cc3ccc(OC)cc3)c2c1.[Br-]
Result: 4 µg/mL

Problem: Next: C=CCc1cc(-c2ccc(OCCC[N+](C)(C)CC(=O)NCCCC)c(CC=C)c2)c2oc(=S)n(Cc3ccccc3F)c2c1.[Br-]
Result: 8 µg/mL

* * *

Each record here notes measured MIC.
Tested on: Staphylococcus aureus
assay.name: Antibacterial activity against methicillin-resistant Staphylococcus aureus clinical isolate M11 by CLSI based micro-broth dilution method
Format: functional
Numeric answer only, unit µg/mL assumed.

Problem: Look up MIC: C=CCc1cc(-c2ccc(OCCC[N+](C)(C)CC(=O)NCCCC)c(CC=C)c2)c2oc(=S)n(Cc3ccccc3Br)c2c1.[Br-]
Result: 64

Problem: Next: C=CCc1cc(-c2ccc(OCCC[N+](C)(C)CC(=O)NCCCC)c(CC=C)c2)c2oc(=S)n(Cc3ccc(Br)cc3)c2c1.[Br-]
Result: 16

Problem: Next: C=CCc1cc(-c2ccc(OCCC[N+](C)(C)CC(=O)NCCCC)c(CC=C)c2)c2oc(=S)n(Cc3cc(F)c(F)c(F)c3)c2c1.[Br-]
Result: 2

Problem: Next: C=CCc1cc(-c2ccc(OCCC[N+](C)(C)CC(=O)NCCCC)c(CC=C)c2)c2oc(=S)n(Cc3ccccc3)c2c1.[Br-]
Result: 4

Problem: Next: C=CCc1cc(-c2ccc(OCCC[N+](C)(C)CC(=O)NCCCC)c(CC=C)c2)c2oc(=S)n(Cc3cccc(Cl)c3Cl)c2c1.[Br-]
Result: 16

Problem: Next: C=CCc1cc(-c2ccc(OCCC[N+](C)(C)CC(=O)NCCCC)c(CC=C)c2)c2oc(=S)n(Cc3ccc(F)cc3Cl)c2c1.[Br-]
Result: 16

---
Problem: Look up MIC: C=CCc1cc(-c2ccc(OCCC[N+](C)(C)CC(=O)NCCCC)c(CC=C)c2)c2oc(=S)n(Cc3ccccc3Cl)c2c1.[Br-]
Result: 4

Problem: Next: C=CCc1cc(-c2ccc(OCCC[N+](C)(C)CC(=O)NCCCC)c(CC=C)c2)c2oc(=S)n(Cc3ccc(Cl)c(Br)c3)c2c1.[Br-]
Result: 128

Problem: Next: C=CCc1cc(-c2ccc(OCCC[N+](C)(C)CC(=O)NCCCC)c(CC=C)c2)c2oc(=S)n(Cc3ccc(Cl)c(F)c3)c2c1.[Br-]
Result: 8

Problem: Next: C=CCc1cc(-c2ccc(OCCC[N+](C)(C)CC(=O)NCCCC)c(CC=C)c2)c2oc(=S)n(Cc3ccc(C(F)(F)F)cc3)c2c1.[Br-]
Result: 4

Problem: Next: C=CCc1cc(-c2ccc(OCCC[N+](C)(C)CC(=O)NCCCC)c(CC=C)c2)c2oc(=S)n(Cc3ccc(F)c(Br)c3)c2c1.[Br-]
Result: 8

Problem: Next: C=CCc1cc(-c2ccc(OCCC[N+](C)(C)CC(=O)NCCCC)c(CC=C)c2)c2oc(=S)n(Cc3ccc(Cl)cc3)c2c1.[Br-]
Result: 4

Problem: Next: C=CCc1cc(-c2ccc(OCCC[N+](C)(C)CC(=O)NCCCC)c(CC=C)c2)c2oc(=S)n(Cc3ccc(F)c(F)c3)c2c1.[Br-]
Result: 4

* * *

Tested on: Staphylococcus aureus
assay.name: Antibacterial activity against methicillin-resistant Staphylococcus aureus clinical isolate M11 by CLSI based micro-broth dilution method
Assay type: functional
measurement.name: log10 MIC (log10 of the value in µg/mL)
The common logarithm of MIC in µg/mL is what is listed.

Problem: Look up log10 MIC: C=CCc1cc(-c2ccc(OCCC[N+](C)(C)CC(=O)NCCCC)c(CC=C)c2)c2oc(=S)n(Cc3ccc(F)c(Cl)c3)c2c1.[Br-]
Result: 1.20

Problem: Next: C=CCc1cc(-c2ccc(OCCC[N+](C)(C)CC(=O)NCCCC)c(CC=C)c2)c2oc(=S)n(Cc3cccc(Br)c3)c2c1.[Br-]
Result: 0.90

Problem: Next: C=CCc1cc(-c2ccc(OCCC[N+](C)(C)CC(=O)NCCCC)c(CC=C)c2)c2oc(=S)n(Cc3ccc(Cl)cc3Br)c2c1.[Br-]
Result: 2.11

Problem: Next: C=CCc1cc(-c2ccc(OCCC[N+](C)(C)CC(=O)NCCCC)c(CC=C)c2)c2oc(=S)n(Cc3c(Cl)cccc3Cl)c2c1.[Br-]
Result: 0.90

---
Problem: Look up log10 MIC: C=CCc1cc(-c2ccc(OCCC[N+](C)(C)CC(=O)NCCCC)c(CC=C)c2)c2oc(=S)n(Cc3cccc(OC)c3)c2c1.[Br-]
Result: 0.60

Problem: Next: C=CCc1cc(-c2ccc(OCCC[N+](C)(C)CC(=O)NCCCC)c(CC=C)c2)c2oc(=S)n(Cc3ccc(Cl)c(Cl)c3)c2c1.[Br-]
Result: 1.51

Problem: Next: C=CCc1cc(-c2ccc(OCCC[N+](C)(C)CC(=O)NCCCC)c(CC=C)c2)c2oc(=S)n(Cc3cc(Br)ccc3F)c2c1.[Br-]
Result: 0.90

* * *

assay.name: Selectivity index, ratio of HC50 for hemolytic activity in sheep erythrocytes to MIC for antibacterial activity against Staphylococcus aureus ATCC 29213
Format: toxicity, cell-based, RBC
Each record here notes measured selectivity ratio.
Enter a number only.

Problem: Look up selectivity ratio: C=CCc1cc(-c2ccc(OCCC[N+](C)(C)CC(=O)NCCCC)c(CC=C)c2)c2oc(=S)n(Cc3ccc(Cl)cc3Cl)c2c1.[Br-]
Result: 1.3

Problem: Next: C=CCc1cc(-c2ccc(OCCC[N+](C)(C)CC(=O)NCCCC)c(CC=C)c2)c2oc(=S)n(Cc3ccc(Br)cc3)c2c1.[Br-]
Result: 15.3

---
Problem: Look up selectivity ratio: C=CCc1cc(-c2ccc(OCCC[N+](C)(C)CC(=O)NCCCC)c(CC=C)c2)c2oc(=S)n(Cc3cc(Br)cc(Br)c3)c2c1.[Br-]
Result: 1.3

Problem: Next: C=CCc1cc(-c2ccc(OCCC[N+](C)(C)CC(=O)NCCCC)c(CC=C)c2)c2oc(=S)n(Cc3ccc(Cl)cc3Br)c2c1.[Br-]
Result: 0.7
